Experiment: Cycloheximide Counterscreen for Small Molecule Inhibitors of Shiga Toxin; note: read at 38.3 µM for the half of the compounds with a filed dose; 0% is about no effect
Conditions: cell reporter, cycloheximide protein synthesis inhibition counterscreen
The whole screen tested about 300,000 compounds, of which about 37,000 (12%) were called active. Cut-off read from the data, not from the text of the source: active = max response mostly above about 13% (no sharp cut-off); inactive = mostly below about 14%. The full list was thinned out, with actives kept by preference.
# output must be one of 1 for active, 0 for inactive

Ask | What was the test verdict on Cc1ccc(C(=O)NNC(=O)c2cccs2)cc1 ?
Reply | 1

Ask | Please do the same for N#Cc1ccccc1NC(=O)COc1c(Br)cc(Br)c2cccnc12 as well.
Reply | 0

Ask | Please do the same for Cc1onc(-c2ccccc2)c1C(=O)N1CCN(S(=O)(=O)c2ccccc2C(F)(F)F)CC1 as well.
Reply | 0

Ask | Please do the same for NNC(=O)c1ccc(Cl)cc1Cl as well.
Reply | 0

Ask | Please do the same for CC(C)C(=O)Nc1ccc(C(=O)NNC(=O)c2cccs2)cc1 as well.
Reply | 1

Ask | Please do the same for O=C(NNC(=O)c1ccc(Cl)cc1Cl)c1cccs1 as well.
Reply | 1

Ask | Please do the same for Cc1ccc(NNC(=O)c2cccs2)cc1Cl as well.
Reply | 0

Ask | Please do the same for O=C(Nc1ccccc1)c1ccc(NC(=O)c2cccs2)cc1 as well.
Reply | 0

Ask | Please do the same for Cc1ccc(C)c(NC(=O)CCC(=O)NNC(=O)c2cccs2)c1 as well.
Reply | 0

Ask | Please do the same for Cc1ccc(S(=O)(=O)N2CCN(C(=O)c3cccs3)CC2)cc1 as well.
Reply | 0

Ask | Please do the same for CC(C)(C)c1ccc(NC(=O)COC(=O)CCc2nc3ccccc3c(=O)[nH]2)cc1 as well.
Reply | 1

---

Test: Cycloheximide Counterscreen for Small Molecule Inhibitors of Shiga Toxin; note: read at 38.3 µM for the half of the compounds with a filed dose; 0% is about no effect
Details: cell reporter, cycloheximide protein synthesis inhibition counterscreen
The campaign covered roughly 300,000 compounds. About 37,000 (12%) were called active. Rule as the data show it: active = max response mostly above about 13% (no sharp cut-off); inactive = mostly below about 14%. For the sample, actives were picked, then their nearest neighbours and some compounds at random.
# output must be one of yes (1) for active, no (0) for inactive

Ask | What was the test verdict on O=C(O)CCc1nc2cc(Cl)ccc2n(Cc2ccccc2)c1=O ?
Reply | no (0)

Ask | Please do the same for Cc1ccnc(NC(=O)CCC(=O)N(CC(=O)NCCc2ccccc2)Cc2cccs2)c1 as well.
Reply | no (0)

Ask | Please do the same for O=C(CC1SCCNC1=O)Nc1ccc(Cl)c(Cl)c1 (stereo not drawn) as well.
Reply | no (0)

Ask | Please do the same for Cc1ccc(CC2CC(=O)N(c3ccc4c(c3)OCCO4)C2=O)cc1 (stereo not drawn) as well.
Reply | no (0)

Ask | Please do the same for O=C(O)CCS(=O)(=O)c1ccc(-c2ccccc2)cc1 as well.
Reply | no (0)

Ask | Please do the same for Cn1c(CNC(=O)c2ccco2)nnc1SCC(=O)N1CCN(c2ccccc2)CC1 as well.
Reply | no (0)

Ask | Please do the same for Cc1ccc(OCc2n[nH]c(=S)n2-c2ccccc2)cc1 as well.
Reply | no (0)

Ask | Please do the same for Cc1ccc(S(=O)(=O)CCC(=O)OCc2ccccc2)cc1 as well.
Reply | no (0)

Ask | Please do the same for COc1ccc(C(C(=O)NC2CCCC2)N(CCCO)C(=O)Cn2nnc(-c3ccc(C)o3)n2)cc1 (stereo not drawn) as well.
Reply | no (0)

Ask | Please do the same for O=C(Nc1ccc2ccccc2c1)/C(=C/c1cccc(Br)c1)NC(=O)c1ccco1 as well.
Reply | no (0)

Ask | Please do the same for O=CN1CCN(C2CC(=O)N(c3ccc4c(c3)OCO4)C2=O)CC1 (stereo not drawn) as well.
Reply | no (0)

Ask | Please do the same for CCCCC(=O)NCc1ccc(F)cc1 as well.
Reply | no (0)

Ask | Please do the same for C=CCn1c(SCc2c(C(=O)OC)sc(N)c2C(=O)OC)nnc1-c1ccc(Cl)cc1 as well.
Reply | no (0)

Ask | Please do the same for Cn1c(COc2ccc(Cl)cc2)nc2ccccc2c1=O as well.
Reply | no (0)

Ask | Please do the same for CC(=O)CCS(=O)(=O)c1ccc(C)c(C)c1 as well.
Reply | yes (1)

Ask | Please do the same for COc1ccccc1C(=O)N1CCNC(=O)C1CC(=O)Nc1ccc(Cl)cc1 (stereo not drawn) as well.
Reply | no (0)

Ask | Please do the same for C=CCn1c(SCC(N)=O)nnc1-c1cc2c(s1)CCC(CC)C2 (stereo not drawn) as well.
Reply | yes (1)

Ask | Please do the same for O=C(Cn1c(COc2ccccc2)nc2ccccc21)Nc1cc(Cl)c(Cl)cc1Cl as well.
Reply | no (0)

Ask | Please do the same for CCn1c(CSc2nc(C)cc(C)n2)nnc1SCC(N)=O as well.
Reply | no (0)

Ask | Please do the same for Cc1ccc(N2C(=O)CC(NCc3ccc4c(c3)OCO4)C2=O)cc1Cl (stereo not drawn) as well.
Reply | yes (1)

Ask | Please do the same for Cc1c(C=O)c2ccccn2c1C(=O)c1ccncc1 as well.
Reply | no (0)

Ask | Please do the same for Cc1cccc(NS(=O)(=O)c2cc(Cl)ccc2Cl)n1 as well.
Reply | no (0)

Ask | Please do the same for COC(=O)CCC(=O)N1CCCC(CO)(Cc2ccccc2)C1 (stereo not drawn) as well.
Reply | yes (1)
